We begin with a simple list: items and their reported pIC50.
# Measurement target: human ERβ (ERβ-LBD) (Homo sapiens, UniProt Q92731)
# Sequence (Q92731 255-530): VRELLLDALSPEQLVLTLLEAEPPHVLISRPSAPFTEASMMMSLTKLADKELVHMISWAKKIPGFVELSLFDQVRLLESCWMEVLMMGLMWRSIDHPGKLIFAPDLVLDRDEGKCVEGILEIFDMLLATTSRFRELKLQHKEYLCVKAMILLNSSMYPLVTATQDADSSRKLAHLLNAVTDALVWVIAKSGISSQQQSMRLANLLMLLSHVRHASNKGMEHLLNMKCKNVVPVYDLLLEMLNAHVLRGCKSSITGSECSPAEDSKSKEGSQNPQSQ
pIC50: −log10 of the molar value.

Molecule | pIC50
CCc1nn(-c2ccc(O)cc2F)c(-c2c(C)noc2C)c1C=NO (single isomer, unassigned) [Example 27] | 7.00 to 9.00
Cc1cc(O)ccc1-c1nn(C)c(/C=N/O)c1-c1c(C)noc1C (single isomer, unassigned) [Example 63] | 7.00 to 9.00
Cn1nc(-c2ccc(O)cc2)c(-c2c(Cl)cccc2Cl)c1C=NO (single isomer, unassigned) [Example 45] | 7.00 to 9.00
